Experiment: Stability in human plasma
Format: in vitro ADME
Settings: 24 h incubation, RP-HPLC, triplicate, read-out: % of remaining peptide in human plasma after 24 h
Where a SMILES comes first, the peptide text is derived from it.
measured-parameter: remaining at 24 h

- compound: "CC(C)C[C@H](NC(=O)[C@@H](N)CSSC[C@H](N)C(=O)N[C@@H](CCC(N)=O)C(=O)N[C@@H](Cc1c[nH]cn1)C(=O)N[C@@H](CC(N)=O)C(=O)N1CCC[C@H]1C(=O)N[C@@H](CCCNC(=N)N)C(=O)O)C(=O)N[C@H](C(=O)N[C@H](C(=O)N[C@@H](Cc1ccc(O)cc1)C(=O)N1CCC[C@H]1C(=O)N[C@@H](Cc1c[nH]c2ccccc12)C(=O)N[C@H](C(=O)O)[C@@H](C)O)C(C)C)C(C)C [Peptide X] (HELM PEPTIDE1{C.L.V.V.Y.P.W.T}|PEPTIDE2{C.Q.H.N.P.R}$PEPTIDE1,PEPTIDE2,1:R3-1:R3$$$V2.0)"
  measured-parameter: "remaining at 24 h"
  result-value: "8%"
